Entry source: ChEMBL document CHEMBL1914406

Record: IC50 reported on Polynucleotide kinase (Enterobacteria phage T4, UniProt P06855).
Sequence (P06855 whole entry): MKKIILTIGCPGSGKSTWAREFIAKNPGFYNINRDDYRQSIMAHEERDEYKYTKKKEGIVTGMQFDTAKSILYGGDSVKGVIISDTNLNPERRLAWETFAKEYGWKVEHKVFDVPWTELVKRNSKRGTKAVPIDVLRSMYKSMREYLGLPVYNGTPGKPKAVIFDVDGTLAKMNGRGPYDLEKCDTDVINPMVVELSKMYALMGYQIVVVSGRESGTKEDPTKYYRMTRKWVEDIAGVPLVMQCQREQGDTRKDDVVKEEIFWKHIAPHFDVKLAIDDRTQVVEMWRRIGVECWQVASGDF

>  <cpdSmiles>
CCCCCCCC/C=C\CCCCCCCC(=O)Oc1cccc2c1C(=O)C=CC2=O

>  <system>
Polynucleotide kinase (Enterobacteria phage T4, UniProt P06855)

>  <measured>
> 100 µM

$$$$

Turning to the following molecule.
(Q) Report IC50 for `CCCCCCCCCCCC(=O)Oc1cccc2c1C(=O)C=CC2=O`
(A) > 100 µM

---

system: Inosine-5'-monophosphate dehydrogenase 2 (Mus musculus, UniProt P24547)
Sequence (P24547 whole entry): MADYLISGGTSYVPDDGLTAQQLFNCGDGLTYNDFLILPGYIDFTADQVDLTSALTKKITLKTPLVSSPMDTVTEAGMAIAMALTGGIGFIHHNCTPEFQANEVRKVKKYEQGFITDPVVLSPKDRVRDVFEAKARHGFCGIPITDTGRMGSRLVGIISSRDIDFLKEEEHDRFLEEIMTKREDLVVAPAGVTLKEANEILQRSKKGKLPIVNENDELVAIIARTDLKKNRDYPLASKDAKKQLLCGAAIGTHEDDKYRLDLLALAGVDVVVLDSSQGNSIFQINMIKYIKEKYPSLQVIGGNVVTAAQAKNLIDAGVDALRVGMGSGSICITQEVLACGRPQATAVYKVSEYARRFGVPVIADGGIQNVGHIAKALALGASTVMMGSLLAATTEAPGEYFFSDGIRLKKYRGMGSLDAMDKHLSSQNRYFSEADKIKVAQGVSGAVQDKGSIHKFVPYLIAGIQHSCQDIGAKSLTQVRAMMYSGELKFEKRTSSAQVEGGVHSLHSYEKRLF
I'd appreciate it if you could supply IC50 values for the items below.

>  <cpdSmiles>
CCCCCCCC/C=C\CCCCCCCC(=O)Oc1cccc2c1C(=O)C=CC2=O

>  <IC50>
> 100 µM

$$$$

Moving on to another compound below.
(Q) # assay system Inosine-5'-monophosphate dehydrogenase 2 (Mus musculus, UniProt P24547): give IC50 of `CCCCCCCCCCCC(=O)Oc1cccc2c1C(=O)C=CC2=O`
(A) > 100 µM
